// data source = patent US20140348834A1

Assayed target: human IL-17A (human, UniProt Q16552 24-155)
Sequence (Q16552 24-155): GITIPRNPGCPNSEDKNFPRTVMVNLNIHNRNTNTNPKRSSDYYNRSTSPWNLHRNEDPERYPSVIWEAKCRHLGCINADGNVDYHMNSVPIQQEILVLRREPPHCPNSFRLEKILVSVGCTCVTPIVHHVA
Experiment description: cell-based or functional assay
Reported endpoint: Potency (pM), IL-17-driven IL-6 production in HS27 cells
Numbers only, in pM.

Prompt: If you can, please state the reported Potency (pM), IL-17-driven IL-6 production in HS27 cells value of ML109-10F7 (antibody, V domains shown, Hybridoma-derived murine mAb; also called 10F7.3D1) VH: QVQLQQSGAELVRPGTSVTLSCKASGYIFTDYEIHWVKQTPVHGLEWIGVNDPESGGTFYNQKFDGKAELTADKSSSTAYMELRSLTSEDSGVYYCTRYYRYESFYGMDYWGQGTSITVSS VL: QIVLTQSPAIMSASPGEKVTMTCSASSSISYIYWFQQKPGTSPKRWIYATFELASGVPARFSGSGSGTSYSLTISSMEAEDAATYYCHQRSSYPWTFGGGSKLEIKR .
Response: 54
